Reported values of Kd for individual entries
- system: T1, EsCas13d, nuclease-dead (Eubacterium siraeum, UniProt B0MS50, R295A;H300A;R849A;H854A)
- T1 sequence: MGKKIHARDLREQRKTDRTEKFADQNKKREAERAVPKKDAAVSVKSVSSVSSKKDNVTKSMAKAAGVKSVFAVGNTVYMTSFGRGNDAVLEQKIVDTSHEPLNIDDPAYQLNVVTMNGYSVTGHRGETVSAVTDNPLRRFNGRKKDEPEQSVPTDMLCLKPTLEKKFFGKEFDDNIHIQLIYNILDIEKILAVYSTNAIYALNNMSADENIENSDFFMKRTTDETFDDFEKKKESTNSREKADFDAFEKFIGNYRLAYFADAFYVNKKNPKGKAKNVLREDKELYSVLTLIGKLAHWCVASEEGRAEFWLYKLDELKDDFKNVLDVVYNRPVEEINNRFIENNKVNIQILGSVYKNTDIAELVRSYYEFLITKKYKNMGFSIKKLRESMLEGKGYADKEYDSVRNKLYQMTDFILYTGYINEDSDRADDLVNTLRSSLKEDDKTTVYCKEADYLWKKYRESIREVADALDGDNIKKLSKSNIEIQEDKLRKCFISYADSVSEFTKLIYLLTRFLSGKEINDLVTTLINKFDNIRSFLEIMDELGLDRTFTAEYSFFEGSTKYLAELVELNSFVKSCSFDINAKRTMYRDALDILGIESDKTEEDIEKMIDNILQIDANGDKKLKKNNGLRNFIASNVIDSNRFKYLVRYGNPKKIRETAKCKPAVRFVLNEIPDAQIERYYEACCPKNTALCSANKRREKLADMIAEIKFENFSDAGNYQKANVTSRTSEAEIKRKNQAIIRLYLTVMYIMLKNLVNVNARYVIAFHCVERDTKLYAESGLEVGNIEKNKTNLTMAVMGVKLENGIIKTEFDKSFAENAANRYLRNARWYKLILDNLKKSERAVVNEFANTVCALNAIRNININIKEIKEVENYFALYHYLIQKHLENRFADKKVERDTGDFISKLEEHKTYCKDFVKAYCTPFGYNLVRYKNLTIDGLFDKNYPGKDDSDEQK
- assay.text: crRNA (strand 1, pre-loaded); Mg2+; 40 mM Tris-HCl pH 7.5, 150 mM NaCl, 6 mM MgCl2, 1 mM DTT, 0.1% Tween-20, 0.2 mg/ml BSA; 25 C; 10 min per concentration, then washed
- test.parameters: tags: His6-TwinStrep-SUMO cleaved; N-terminal SNAP kept (SNAP-Surface 488); label: 3' end held by stalled T7 RNA polymerase

Example results:
Given target 3 insU 3' of 5,insU 3' of 3 (mixed) RNA 1: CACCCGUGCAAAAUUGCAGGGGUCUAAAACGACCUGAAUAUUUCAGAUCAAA RNA 2: GGGAAUGGAUCCACAUCUACGAAUUCGUUUUUGAUCUGAAAUAUUCAUGGUUCUGCAGAUCGGAAGAGCACACGU , respond with its Kd.
0.00435 µM

Given target 1 insA 3' of 5,insA 3' of 4 (mixed) RNA 1: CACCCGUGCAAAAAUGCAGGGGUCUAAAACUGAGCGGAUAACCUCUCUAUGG RNA 2: GGGAAUGGAUCCACAUCUACGAAUUCGUACCAUAGAGAGGUUAUCCGACAUCACCGAGAUCGGAAGAGCACACGU , respond with its Kd.
0.0098 µM

Given target 1 G5C,A9C (mixed) RNA 1: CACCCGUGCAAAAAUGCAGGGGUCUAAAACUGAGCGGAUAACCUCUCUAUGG RNA 2: GGGAAUGGAUCCACAUCUACGAAUUCGUACCAUAGAGAGGUUCUCCCCUCACCGAGAUCGGAAGAGCACACGU , respond with its Kd.
0.0167 µM

Okay, now this binder:
Given target 2 MT 5'PFS GGC 3'PFS CUU (mixed) RNA 1: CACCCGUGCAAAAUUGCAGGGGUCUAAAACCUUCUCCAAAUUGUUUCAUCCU RNA 2: GGGAAUGGAUCCACAUCUACGAAUUCGGCAGGAUGAAACAAUUUGGAGAAGCUUAGAUCGGAAGAGCACACGU , respond with its Kd.
0.0176 µM
